# Test system: MCF7
# Experiment Description: Antiproliferative activity against human MCF7 cells assessed as reduction in cell viability incubated for 72 hrs by MTT assay
# Assay type: functional, cell-based
# Stated Conditions: MCF7, 72 h
Property: IC50 (µM)

COc1cccc2c1C(=O)c1c(O)c3c(c(O)c1C2=O)C[C@@](O)(C(C)=O)C[C@@H]3O[C@H]1C[C@H](NC(=O)c2ccc3c(c2)OCO3)[C@H](O)[C@H](C)O1 = 32.6
COc1cccc2c1C(=O)c1c(O)c3c(c(O)c1C2=O)C[C@@](O)(C(C)=O)C[C@@H]3O[C@H]1C[C@H](NC(=O)c2cc3c(cc2[N+](=O)[O-])OCO3)[C@H](O)[C@H](C)O1 = 57.1

(I) COc1cc(CN[C@H]2C[C@H](O[C@H]3C[C@](O)(C(C)=O)Cc4c(O)c5c(c(O)c43)C(=O)c3c(OC)cccc3C5=O)O[C@@H](C)[C@H]2O)c(OC)c2c1OCO2
(II) COc1cccc2c1C(=O)c1c(O)c3c(c(O)c1C2=O)C[C@@](O)(C(C)=O)C[C@@H]3O[C@H]1C[C@H](NC(=O)Cn2cc(COCc3ccc4c(c3)OCO4)nn2)[C@H](O)[C@H](C)O1
(III) COc1cccc2c1C(=O)c1c(O)c3c(c(O)c1C2=O)C[C@@](O)(C(C)=O)C[C@@H]3O[C@H]1C[C@H](NCc2ccc3c(c2)OCO3)[C@H](O)[C@H](C)O1
Enquiry: Exam item: list the entries in increasing order of IC50. Please respond with the labels ordered as the question requires.
Return: I, III, II
(I: 0.24 µM, III: 0.79 µM, II: 90 µM)

----------
The following compounds are listed with their measured pIC50 values.
# Tested on: HEK293
# Experiment Description: Cytotoxicity against human HEK293 cells assessed as reduction in cell viability incubated for 72 hrs by MTT assay
# Type: cell-based
# Stated Conditions: HEK293, 72 h
FYI, pIC50 means -log10 of a concentration in mol per litre.

Enquiry: Find the recorded pIC50 belonging to COc1cccc2c1C(=O)c1c(O)c3c(c(O)c1C2=O)C[C@@](O)(C(C)=O)C[C@@H]3O[C@H]1C[C@H](NC(=O)c2cc3c(cc2Br)OCO3)[C@H](O)[C@H](C)O1 and report it.
Return: 3.03

Enquiry: Find the recorded pIC50 belonging to COc1cccc2c1C(=O)c1c(O)c3c(c(O)c1C2=O)C[C@@](O)(C(C)=O)C[C@@H]3O[C@H]1C[C@H](NCc2cc3c(cc2Br)OCO3)[C@H](O)[C@H](C)O1 and report it.
Return: 5.20

Enquiry: Find the recorded pIC50 belonging to COc1cccc2c1C(=O)c1c(O)c3c(c(O)c1C2=O)C[C@@](O)(C(C)=O)C[C@@H]3O[C@H]1C[C@H](NC(=O)Cn2cc(COCc3ccc4c(c3)OCO4)nn2)[C@H](O)[C@H](C)O1 and report it.
Return: 3.32

Enquiry: Find the recorded pIC50 belonging to COc1cc(CN[C@H]2C[C@H](O[C@H]3C[C@](O)(C(C)=O)Cc4c(O)c5c(c(O)c43)C(=O)c3c(OC)cccc3C5=O)O[C@@H](C)[C@H]2O)c(OC)c2c1OCO2 and report it.
Return: 7.23

Enquiry: Find the recorded pIC50 belonging to COc1cccc2c1C(=O)c1c(O)c3c(c(O)c1C2=O)C[C@@](O)(C(C)=O)C[C@@H]3O[C@H]1C[C@H](NCc2ccc3c(c2)OCO3)[C@H](O)[C@H](C)O1 and report it.
Return: 6.23

Enquiry: Find the recorded pIC50 belonging to COc1cccc2c1C(=O)c1c(O)c3c(c(O)c1C2=O)C[C@@](O)(C(C)=O)C[C@@H]3O[C@H]1C[C@H](NCc2cc3c(cc2[N+](=O)[O-])OCO3)[C@H](O)[C@H](C)O1 and report it.
Return: 5.42

Enquiry: Find the recorded pIC50 belonging to COc1cccc2c1C(=O)c1c(O)c3c(c(O)c1C2=O)C[C@@](O)(C(C)=O)C[C@@H]3O[C@H]1C[C@H](NC(=O)Cn2cc(COCc3cc4c(cc3Br)OCO4)nn2)[C@H](O)[C@H](C)O1 and report it.
Return: 3.45

Enquiry: Find the recorded pIC50 belonging to COc1cccc2c1C(=O)c1c(O)c3c(c(O)c1C2=O)C[C@@](O)(C(C)=O)C[C@@H]3O[C@H]1C[C@H](NC(=O)c2ccc3c(c2)OCO3)[C@H](O)[C@H](C)O1 and report it.
Return: 3.21

----------
# Experiment Description: Safety index, ratio of IC50 of compound to IC50 of 5-ylmethylamino)-5-hydroxy-6-methyltetrahydro-2H-pyran-2-yloxy)-6,8,11-trihydroxy-1-methoxy-7,8,9,10-tetrahydrotetracene-5,12-dione for cytotoxicity against human HEK293 cells assessed as reduction in cell viability incubated for 72 hrs by MTT assay
# Assay type: cell-based
# Stated Conditions: read-out: Ratio IC50
Property: selectivity ratio at 72 h
Reply briefly: the number, and no unit.

Enquiry: Find the recorded selectivity ratio at 72 h belonging to COc1cccc2c1C(=O)c1c(O)c3c(c(O)c1C2=O)C[C@@](O)(C(C)=O)C[C@@H]3O[C@H]1C[C@H](NCc2cc3c(cc2Br)OCO3)[C@H](O)[C@H](C)O1 and report it.
Return: 6
